Hey, just so you know, these numbers are from patent US6977272B2.

Examples of molecules with documented pEC50 follow.
target: L1-mediated cell-cell adhesion in human L1-transfected NIH/3T3 cells (2B2-L1, 2A2-L1) (Homo sapiens, UniProt P32004); experiment: Cell aggregation (cell-cell adhesion) assay in ethanol-sensitive, human L1-transfected NIH/3T3 cells; type: cell-based; design: antagonist at the aqueous concentration (μM); Antagonist Activity Butanol % ± SEM; 1-alc
Sequence (P32004 whole entry): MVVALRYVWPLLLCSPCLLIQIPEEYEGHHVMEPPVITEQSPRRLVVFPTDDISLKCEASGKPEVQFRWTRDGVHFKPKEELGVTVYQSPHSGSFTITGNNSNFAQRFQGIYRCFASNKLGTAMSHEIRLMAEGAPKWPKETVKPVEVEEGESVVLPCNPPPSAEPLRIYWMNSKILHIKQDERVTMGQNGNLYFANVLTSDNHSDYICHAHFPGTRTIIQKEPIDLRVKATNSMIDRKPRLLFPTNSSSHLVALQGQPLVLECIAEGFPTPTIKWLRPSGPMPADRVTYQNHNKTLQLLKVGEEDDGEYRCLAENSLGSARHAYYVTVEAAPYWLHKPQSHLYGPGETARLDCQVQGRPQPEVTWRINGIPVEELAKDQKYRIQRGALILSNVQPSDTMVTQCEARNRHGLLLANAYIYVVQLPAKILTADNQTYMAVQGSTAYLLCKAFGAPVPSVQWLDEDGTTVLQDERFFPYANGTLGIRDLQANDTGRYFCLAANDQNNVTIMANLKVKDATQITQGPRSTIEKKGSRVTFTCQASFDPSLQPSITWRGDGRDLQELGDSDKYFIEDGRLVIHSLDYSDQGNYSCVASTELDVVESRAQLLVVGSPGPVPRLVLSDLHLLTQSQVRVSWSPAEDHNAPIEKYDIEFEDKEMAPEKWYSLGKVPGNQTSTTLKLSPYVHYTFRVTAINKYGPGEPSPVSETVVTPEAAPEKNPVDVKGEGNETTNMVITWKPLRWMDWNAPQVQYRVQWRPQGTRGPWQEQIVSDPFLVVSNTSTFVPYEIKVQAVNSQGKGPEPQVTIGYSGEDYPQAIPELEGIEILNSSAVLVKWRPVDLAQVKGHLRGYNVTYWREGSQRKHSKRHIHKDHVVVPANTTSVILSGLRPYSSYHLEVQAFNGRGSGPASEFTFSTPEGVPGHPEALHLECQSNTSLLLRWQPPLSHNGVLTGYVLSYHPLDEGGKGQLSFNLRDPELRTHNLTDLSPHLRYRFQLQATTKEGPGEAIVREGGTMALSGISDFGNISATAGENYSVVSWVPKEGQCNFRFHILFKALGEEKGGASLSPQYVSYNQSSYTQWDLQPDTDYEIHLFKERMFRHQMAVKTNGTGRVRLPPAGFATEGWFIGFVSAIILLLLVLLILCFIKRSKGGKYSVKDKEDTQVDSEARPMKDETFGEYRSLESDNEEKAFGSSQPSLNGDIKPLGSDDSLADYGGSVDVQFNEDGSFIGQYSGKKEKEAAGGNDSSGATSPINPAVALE
pEC50: −log10 of the molar value.

| CHEMICAL_STRUCTURE | pEC50 |
| --- | --- |
| CCCCCO | 3.27 |
| CCCCCCCCCCCCCO | 6.60 |
| CCCCCCCCO | 5.52 |
| CCCCCCCCCCCO | 7.52 |

* * *

biological target: L1-mediated cell-cell adhesion in human L1-transfected NIH/3T3 cells (2B2-L1, 2A2-L1) (Homo sapiens); test: Cell aggregation (cell-cell adhesion) assay in ethanol-sensitive, human L1-transfected NIH/3T3 cells; type: cell-based; parameters: antagonist at the aqueous concentration (μM); Antagonist Activity Butanol % ± SEM; 1-alc; settings: EC50 membrane (based on calculated membrane concentrations, expressed relative to 1-pentanol), against 100 mM ethanol; calculated from the Pm/b (FIG. 3)
pEC50: −log10 of the molar value.
TEST_READOUT: pEC50

| COMPOUND | RESULT_VALUE |
| --- | --- |
| CCCCCCCCO [1-octanol] | 4.01 |
| CCCCCO [1-pentanol] | 3.27 |
| CCCCCCCCCCCCCO [1-tridecanol] | 2.79 |
| CCCCCCCCCCCO [1-undecanol] | 4.70 |

* * *

Examples of compounds with documented EC50 follow.
target: L1-mediated cell-cell adhesion in human L1-transfected NIH/3T3 cells (2B2-L1, 2A2-L1) (Homo sapiens, UniProt P32004); test: Cell aggregation (cell-cell adhesion) assay in ethanol-sensitive, human L1-transfected NIH/3T3 cells; assay type: cell-based; design: antagonist at the aqueous concentration (μM); Antagonist Activity Butanol % ± SEM; 1-alc; settings: approximate EC50 (against 2 mM 1-butanol), antagonist concentration used in FIG. 5B

| CHEMICAL_STRUCTURE | EC50 |
| --- | --- |
| CCCCCCCCO | ~5 µM |
| CC(C)CCCO | ~40 µM |
| CCCCCO | ~700 µM |

* * *

Target: L1-mediated cell-cell adhesion in human L1-transfected NIH/3T3 cells (2B2-L1, 2A2-L1) (Homo sapiens, UniProt P32004)
Experiment: Cell aggregation (cell-cell adhesion) assay in ethanol-sensitive, human L1-transfected NIH/3T3 cells
Format: cell-based
Set-up: antagonist at the aqueous concentration (μM); Antagonist Activity Butanol % ± SEM; 1-alc
Conditions: against 2 mM butanol; linear regression of concentration-response curves (FIG. 4); read-out: aqueous concentration that produced half maximal effect (antagonism)
Procedure: NIH/3T3 cells were cultured at 37° C. in Dulbecco's […] Eagle medium (DMEM) (Invitrogen, Carlsbad, Calif.) supplemented with 10% normal calf serum (Intergen, Purchase, N.Y.) and 400 μg/ml G418 (Life Technologies), in an atmosphere of 90% air and 10% CO2. […] Cell adhesion assays were performed in the absence and presence of the compounds, listed below in Table 1. […] The aqueous concentration of each antagonist was calculated to produce membrane concentrations equivalent to 100 mM ethanol. […]
pEC50: −log10 of the molar value.

| CHEMICAL_STRUCTURE | pEC50 |
| --- | --- |
| CC(C)CCCO | 4.49 |
| CCCCCO | 3.65 |
| CCCCCCO | 4.10 |

* * *

target: L1-mediated cell-cell adhesion in human L1-transfected NIH/3T3 cells (2B2-L1, 2A2-L1) (Homo sapiens, UniProt P32004); assay: Cell aggregation (cell-cell adhesion) assay in ethanol-sensitive, human L1-transfected NIH/3T3 cells; assay type: cell-based; set-up: antagonist at the aqueous concentration (μM); Antagonist Activity Butanol % ± SEM; 1-alc; conditions: read-out: IC50 concentration (antagonist, used in FIG. 5A)
TEST_READOUT: IC50

| CHEMICAL_STRUCTURE | RESULT_VALUE |
| --- | --- |
| CCCCCCCCO | 5 µM |
